experiment: Acute toxicity (50% lethal dose); details: mouse, in vivo, ip, mice, mortality 48 hours after administration
Where a name gives a salt, the structure may show the parent alone.
Kindly supply the reported LD50 at 48 h values for the records listed here.
Respond with the bare value in mg/kg.

Q. For the compound shown here, CC(C)N1CCCC(c2ccc(O)c(O)c2)C1 (stereo not shown) [Example 9, hydrobromide] , give the reported LD50 at 48 h.
A. 150

Q. Please do the same for CC(=O)Oc1ccc(C2CCCN(Cc3ccccc3)C2)cc1OC(C)=O (stereo not shown) [Example 6, oxalate] as well.
A. 300

Q. How about C=CCN1CCCC(c2ccc(O)c(O)c2)C1 (stereo not shown) [Example 10, hydrobromide] ?
A. 150

Q. Now this one: CC(=O)Oc1ccc(C2CCCN(C)C2)cc1OC(C)=O (stereo not shown) [Example 2, oxalate]
A. 150

Q. Now consider CCN1CCCC(c2ccc(O)c(O)c2)C1 (stereo not shown) [Example 3, hydrobromide] and answer again.
A. 150

Q. Proceed to CCCN1CCCC(c2ccc(O)c(O)c2)C1 (stereo not shown) [Example 4, hydrobromide]
A. 150

Q. Try the compound CCCN1CCCC(c2ccc(OC(C)=O)c(OC(C)=O)c2)C1 (stereo not shown) [Example 8, oxalate]
A. 250

Q. And for Oc1ccc(C2CCCN(Cc3ccccc3)C2)cc1O (stereo not shown) [Example 5, oxalate] ?
A. 150

Q. Thanks! And Oc1ccc(C2CCCN(CCc3ccccc3)C2)cc1O (stereo not shown) [Example 7, fumarate] ?
A. 150

Q. Same thing, different compound: CN1CCCC(c2ccc(O)c(O)c2)C1 (stereo not shown) [Example 1, hydrobromide]
A. 150
